Test: Thermodynamic equilibrium aqueous solubility in pH 1 solution at 1 mg/ml after 15 to 24 hrs by UV-HPLC method
Assay type: physicochemical
Details: aqueous pH 1 solution, read-out: Therm_solubility
Answer each item with its documented solubility thermodynamic.
Numbers only, in µg/mL.

Here is how some molecules turned out for solubility thermodynamic.
structure: CC(C)[C@H](N)C(=O)OCOC(=O)N(c1c(Cl)cc(OC(F)F)cc1Cl)c1nc(Cl)cn([C@@H](C)C2CC2)c1=O.Cl
solubility thermodynamic, µg/mL: 1820
--
structure: C[C@@H](C1CC1)n1cc(Cl)nc(N(C(=O)OCOC(=O)CCN)c2c(Cl)cc(OC(F)F)cc2Cl)c1=O.Cl
solubility thermodynamic, µg/mL: 1350
--
structure: C[C@@H](C1CC1)n1cc(Cl)nc(Nc2c(Cl)cc(OC(F)F)cc2Cl)c1=O
solubility thermodynamic, µg/mL: 7
--
structure: C[C@@H](C1CC1)n1cc(Cl)nc(N(C(=O)OCC(C)(C)COP(=O)([O-])[O-])c2c(Cl)cc(OC(F)F)cc2Cl)c1=O.[Na+].[Na+]
solubility thermodynamic, µg/mL: 50
--
structure: C[C@@H](C1CC1)n1cc(Cl)nc(N(C(=O)OCOC(=O)CN(C)C)c2c(Cl)cc(OC(F)F)cc2Cl)c1=O
solubility thermodynamic, µg/mL: 1720
--
structure: C[C@H](N)C(=O)OCOC(=O)N(c1c(Cl)cc(OC(F)F)cc1Cl)c1nc(Cl)cn([C@@H](C)C2CC2)c1=O.Cl
solubility thermodynamic, µg/mL: 370

Give me solubility thermodynamic for each of these molecules, listed below.
1. C[C@@H](C1CC1)n1cc(Cl)nc(N(C(=O)OCOP(=O)(O)O)c2c(Cl)cc(OC(F)F)cc2Cl)c1=O
2. C[C@@H](C1CC1)n1cc(Cl)nc(N(C(=O)OCCCOP(=O)([O-])[O-])c2c(Cl)cc(OC(F)F)cc2Cl)c1=O.[Na+].[Na+]

Result block:
1: 338; 2: 4
